- Measurement setup: 343.15 K; 100 kPa; Liquid; Vibrating tube method
Measured property: mass density (kg/m3)

>>> df
              molecule  quantity_unit  endpoint_value
0   CCCO [propan-1-ol]          kg/m3           761.6
1   CCCCCCCCC [nonane]          kg/m3          677.18
2    CCCCCCCC [octane]          kg/m3          661.02
3  CCCCCCCCCC [decane]          kg/m3          691.44

----------
- Measurement setup: 363.15 K; 100 kPa; Liquid; Vibrating tube method
Measured property: mass density (kg/m3)

>>> print(df.to_string())
   chemical_structure  quantity_unit  endpoint_value
0           CCCCCCCCC          kg/m3          662.05
1          CCCCCCCCCC          kg/m3          676.12
2                CCCO          kg/m3          743.01
3            CCCCCCCC          kg/m3          643.71
